- Assayed target: Cysteinyl leukotriene receptor (Homo sapiens, UniProt Q9Y271+Q9NS75)
- Sequence (Q9Y271 whole entry): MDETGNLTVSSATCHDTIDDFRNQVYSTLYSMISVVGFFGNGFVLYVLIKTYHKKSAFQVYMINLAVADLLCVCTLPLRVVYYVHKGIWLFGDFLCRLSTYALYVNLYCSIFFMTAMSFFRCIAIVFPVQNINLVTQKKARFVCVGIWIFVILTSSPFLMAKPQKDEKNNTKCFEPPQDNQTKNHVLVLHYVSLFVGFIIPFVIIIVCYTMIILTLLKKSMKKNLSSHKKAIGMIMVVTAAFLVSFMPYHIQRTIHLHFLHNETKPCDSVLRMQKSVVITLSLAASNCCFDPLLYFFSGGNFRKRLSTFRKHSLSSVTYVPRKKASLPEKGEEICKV
- Sequence (Q9NS75 whole entry): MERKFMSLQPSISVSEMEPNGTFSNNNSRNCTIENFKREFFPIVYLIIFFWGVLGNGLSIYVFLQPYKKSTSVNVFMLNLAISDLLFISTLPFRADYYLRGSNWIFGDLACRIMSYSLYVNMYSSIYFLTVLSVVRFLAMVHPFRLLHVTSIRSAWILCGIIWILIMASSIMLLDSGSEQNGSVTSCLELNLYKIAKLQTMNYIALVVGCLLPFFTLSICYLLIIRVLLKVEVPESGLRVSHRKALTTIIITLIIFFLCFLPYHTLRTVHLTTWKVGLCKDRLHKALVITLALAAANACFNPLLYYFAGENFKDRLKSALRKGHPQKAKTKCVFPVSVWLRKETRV
- Test: Inhibition of LTC4 induced smooth muscle contraction of guinea pig ileum
- Assay type: functional, tissue-based, Cavia porcellus
- Stated conditions: target entry is the homologue from another species
Class definitions on IC50: bin A = under 20 nM, bin B = from 20 nM up to 200 nM, bin C = 200 nM and over

Into which category would you place CCCCCCCc1ccc(/C=C/C(=O)Nc2cccc3c2OC(c2nnn[nH]2)CO3)cc1 (configuration not stated) ?
bin C

Into which category would you place CCCCCOc1ccc(C(=O)Nc2cccc3c(=O)cc(-c4nn[nH]n4)oc23)cc1 ?
bin B

Into which category would you place O=C(Nc1cccc2c1OC(c1nnn[nH]1)CO2)c1ccc(OCCCCCc2ccccc2)cc1 (configuration not stated) ?
bin A

Into which category would you place CCCCCOc1ccccc1/C=C/C(=O)Nc1cccc2c1OC(c1nnn[nH]1)CO2 (configuration not stated) ?
bin C

Into which category would you place CCCCCc1ccc(/C=C/C(=O)Nc2cccc3c(=O)cc(-c4nn[nH]n4)oc23)cc1 ?
bin B

Into which category would you place CCCCOc1ccc(C(=O)Nc2cccc3c(=O)cc(-c4nn[nH]n4)oc23)cc1 ?
bin A

Into which category would you place CCCCCCOc1ccc(/C=C/C(=O)Nc2cccc3c2OC(c2nnn[nH]2)CO3)cc1 (configuration not stated) ?
bin B

Into which category would you place CCCCCOc1ccc(C(=O)Nc2cccc3c2OC(c2nnn[nH]2)CO3)cc1 (configuration not stated) ?
bin B

Into which category would you place CCC/C=C/COc1ccc(C(=O)Nc2cccc3c2OC(c2nnn[nH]2)CO3)cc1 (configuration not stated) ?
bin A

Into which category would you place CCCCCCCOc1ccc(C(=O)Nc2cccc3c(=O)cc(-c4nn[nH]n4)oc23)cc1 ?
bin A

Into which category would you place CCCCc1ccc(/C=C/C(=O)Nc2cccc3c(=O)cc(-c4nn[nH]n4)oc23)cc1 ?
bin B

Into which category would you place CC/C=C/COc1ccc(C(=O)Nc2cccc3c2OC(c2nnn[nH]2)CO3)cc1 (configuration not stated) ?
bin B

Into which category would you place CCCCCC#CCOc1ccc(C(=O)Nc2cccc3c2OC(c2nnn[nH]2)CO3)cc1 (configuration not stated) ?
bin A

Into which category would you place CCCCCc1ccc(C(=O)Nc2cccc3c(=O)cc(-c4nn[nH]n4)oc23)cc1 ?
bin B

Into which category would you place CCCCCCCCCCOc1ccc(C(=O)Nc2cccc3c2OC(c2nnn[nH]2)CO3)cc1 (configuration not stated) ?
bin C

Into which category would you place CCCCCc1ccc(/C=C/C(=O)Nc2ccccc2OCc2nn[nH]n2)cc1 ?
bin C

Into which category would you place CCCC/C=C/COc1ccc(C(=O)Nc2cccc3c2OC(c2nnn[nH]2)CO3)cc1 (configuration not stated) ?
bin A

Into which category would you place CCCCCCCc1ccc(C(=O)Nc2cccc3c(=O)cc(-c4nn[nH]n4)oc23)cc1 ?
bin A

Into which category would you place CCCCCCCCCCc1ccc(C(=O)Nc2cccc3c2OC(c2nnn[nH]2)CO3)cc1 (configuration not stated) ?
bin C

Into which category would you place CCCCCc1ccc(/C=C/C(=O)Nc2cccc3ccc(-c4nn[nH]n4)nc23)cc1 ?
bin C

Into which category would you place CCCCCc1ccc(/C=C/C(=O)Nc2ccccc2C(=O)O)cc1 ?
bin C
